testDetails: Pharmacokinetic analysis of NV-5297 in mice (i.v. and oral, LC-MS/MS)
Format: in vivo
runParameters: male, mouse, serum; OD (oral) dose at 5 mg/kg, C57BL/6 mice; read-out: Terminal T1/2 (converted)
Procedure: […] Mice were given free access to food and water for both i.v. and orally dosed groups. After dosing, tail-vein blood was collected at the indicated time points into K2EDTA tubes and centrifuged at 2,000g for 5 minutes to collect serum. Levels of NV-5297 were quantified via LC-MS/MS. WinNonlin V 6.2 statistics software (Pharsight Corporation, California, USA) was used to generate pharmacokinetics parameters using non-compartmental model. PK parameters of NV-5297 after an IV dose at 1 mg/kg […]
reportedMetric: half-life (h)
A number alone suffices; assume h.

What does the data say about its half-life? Entry: CC(C)(C[C@H](N)C(=O)O)C(F)(F)F
2.86

Origin of the recorded values: paper PMC9423655
